Experiment: qHTS RealTime-Glo MT Cell Viability Assay in HEK293 cells - 40 hour (AID 1224874); further: on the % scale 0 is the no-effect control and ±100 the full control effect; nearly all actives have a fitted effect of over 50% in size
Details: RealTime-Glo luminescence; active compounds read low
Results filed as inconclusive are left out.
QUANTITY_KIND: max response (%)
Numbers only; they are read as %.

For orientation, consider the following solved cases.
[
  {
    "COMPOUND": "O=C1CCCCCCCCCCCCCC1",
    "max response / %": -11.7
  },
  {
    "COMPOUND": "C=Cc1ccc(O)c(OC)c1",
    "max response / %": 2.13
  },
  {
    "COMPOUND": "C/C=C/C(=O)OCC(C)C",
    "max response / %": 5.85
  },
  {
    "COMPOUND": "CCCCNc1ccc(NCCCC)c2c1C(=O)c1ccccc1C2=O",
    "max response / %": -1.48
  },
  {
    "COMPOUND": "C=C(C)CCO",
    "max response / %": 1.14
  },
  {
    "COMPOUND": "COc1cc(OC)nc(NC(=O)NS(=O)(=O)Nc2ccccc2C(=O)N(C)C)n1",
    "max response / %": 6.33
  }
]

Which value of max response has been reported for N#Cc1ccc(C/C(=N/NC(=O)Nc2ccc(OC(F)(F)F)cc2)c2cccc(C(F)(F)F)c2)cc1 in the records? -2.78

Same question, CCc1cccc(CC)c1 this time 23.9

###

Target: Nuclear receptor ROR-gamma (Homo sapiens)
Assay: qHTS assay to identify small molecule antagonists of the retinoid-related orphan receptor gamma (ROR-gamma) signaling pathway (AID 1159521; further: nearly all actives have a fitted effect of over 50% in size)
Details: Tet-on RORgamma CHO cells, RORE-luciferase, 16 h; series mostly up to 92.4 µM
Inconclusive results are not listed. The source made the active and inactive calls. Calls come from the whole dose curve; as a rule, active = well fitted inhibition curve with a large enough effect in the repeat runs; inconclusive = weak or mixed curves, or effect the other way; inactive = no such curve, though single readings can be large or run the other way.
Reply using exactly one outcome from active, inactive

Solved entries (count: 5):
[
  {
    "COMPOUND": "Clc1cccc(Cl)n1",
    "CAT": "inactive"
  },
  {
    "COMPOUND": "O=C(c1ccccc1)c1ccc(Cl)cc1",
    "CAT": "active"
  },
  {
    "COMPOUND": "CCCCCN=C(N)N/N=C/c1c[nH]c2ccc(OC)cc12",
    "CAT": "active"
  },
  {
    "COMPOUND": "NCc1ccco1",
    "CAT": "inactive"
  },
  {
    "COMPOUND": "Nc1ccc(Cl)c([N+](=O)[O-])c1",
    "CAT": "active"
  }
]

Kindly provide the recorded test outcome for the following compound: Cn1ccnc1 inactive

Same question, Cc1ccc(S(=O)(=O)C(I)I)cc1 this time active

Same question, Cc1ccc2sc3cccc(C)c3c2c1 this time inactive

###

Assay: A CellTox Green Cytotoxicity Assay to monitor cytotoxicity in HepG2 cells - 8 hour (AID 1224890); further: on the % scale 0 is the no-effect control and ±100 the full control effect; nearly all actives have a fitted effect of over 45% in size
Conditions: CellTox Green fluorescence; series mostly up to 76.8 µM
Results filed as inconclusive are left out. Calls of active or inactive are those of the source. Calls follow the shape of the dose curve; as a rule, active = well fitted activation curve with a large enough effect in the repeat runs; inconclusive = weak or mixed curves; inactive = flat fitted curve, though single readings scatter.
QUANTITY_KIND: outcome

[
  {
    "COMPOUND": "S=C1NC=NC2N=CNC12 (stereo not given)",
    "outcome": "inactive"
  },
  {
    "COMPOUND": "CSc1ccc(O)cc1C",
    "outcome": "inactive"
  },
  {
    "COMPOUND": "Cc1ccc(Cl)c(N)c1Cl",
    "outcome": "inactive"
  },
  {
    "COMPOUND": "CCc1c(C)cc(N)c(CC)c1N",
    "outcome": "inactive"
  }
]

Next up:
Which value of outcome has been reported for CCCC(=O)c1cc(O)c(O)cc1O in the records? inactive

meta.source: PubChem BioAssay (Tox21)
